Test system: B. subtilis 168;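 further: OD595 on entry to stationary phase over no-drug wells; at most 1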
Experiment: fitness (endpoint OD595 vs no drug) (fraction); higher = more growth
Settings: first compound 75 µg/mL; partner 0.0625 µg/mL; main component drawn
Quick reference for fitness among some compounds
Reply: number alone, nothing else.

Below are worked cases with known answers.
CC[C@H](C)[C@H](N)C1=N[C@H](C(=O)N[C@@H](CC(C)C)C(=O)N[C@H](CCC(=O)O)C(=O)N[C@H](C(=O)N[C@H]2CCCCNC(=O)[C@H](CC(N)=O)NC(=O)[C@@H](CC(=O)O)NC(=O)[C@H](Cc3cnc[nH]3)NC(=O)[C@@H](Cc3ccccc3)NC(=O)[C@H]([C@@H](C)CC)NC(=O)[C@@H](CCCN)NC2=O)[C@@H](C)CC)CS1 [Bacitracin] + CCC[C@@H]1C[C@@H](C(=O)N[C@@H]([C@H]2O[C@H](SC)[C@H](O)[C@@H](O)[C@H]2O)[C@H](C)Cl)N(C)C1 [Clindamycin] ... 0.568
CC[C@H](C)[C@H](N)C1=N[C@H](C(=O)N[C@@H](CC(C)C)C(=O)N[C@H](CCC(=O)O)C(=O)N[C@H](C(=O)N[C@H]2CCCCNC(=O)[C@H](CC(N)=O)NC(=O)[C@@H](CC(=O)O)NC(=O)[C@H](Cc3cnc[nH]3)NC(=O)[C@@H](Cc3ccccc3)NC(=O)[C@H]([C@@H](C)CC)NC(=O)[C@@H](CCCN)NC2=O)[C@@H](C)CC)CS1 [Bacitracin] + COc1c(N2C[C@@H]3CCCN[C@@H]3C2)c(F)cc2c(=O)c(C(=O)O)cn(C3CC3)c12 [Moxifloxacin] ... 0.026
CC[C@H](C)[C@H](N)C1=N[C@H](C(=O)N[C@@H](CC(C)C)C(=O)N[C@H](CCC(=O)O)C(=O)N[C@H](C(=O)N[C@H]2CCCCNC(=O)[C@H](CC(N)=O)NC(=O)[C@@H](CC(=O)O)NC(=O)[C@H](Cc3cnc[nH]3)NC(=O)[C@@H](Cc3ccccc3)NC(=O)[C@H]([C@@H](C)CC)NC(=O)[C@@H](CCCN)NC2=O)[C@@H](C)CC)CS1 [Bacitracin] + C[C@H]1COc2c(N3CCN(C)CC3)c(F)cc3c(=O)c(C(=O)O)cn1c23 [Levofloxacin] ... 0.0236

Okay, now this compound:
Please indicate fitness recorded for CC[C@H](C)[C@H](N)C1=N[C@H](C(=O)N[C@@H](CC(C)C)C(=O)N[C@H](CCC(=O)O)C(=O)N[C@H](C(=O)N[C@H]2CCCCNC(=O)[C@H](CC(N)=O)NC(=O)[C@@H](CC(=O)O)NC(=O)[C@H](Cc3cnc[nH]3)NC(=O)[C@@H](Cc3ccccc3)NC(=O)[C@H]([C@@H](C)CC)NC(=O)[C@@H](CCCN)NC2=O)[C@@H](C)CC)CS1 [Bacitracin] + CC1=C\[C@@H](O)CC(=O)Cc2nc(co2)C(=O)N2CCC=C2C(=O)O[C@H](C(C)C)[C@H](C)/C=C/C(=O)NC\C=C\1 [Virginiamycin M1] 0.994

====

Test system: S. aureus Newman;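 further: first quartile when negative (synergy) and third quartile when positive (antagonism)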
Assay: Bliss interaction score (quartile over a dose matrix) (fitness difference); higher = more antagonism (negative = synergy)
Quick reference for Bliss interaction score among some compounds
Reply: number alone, nothing else.

Below are worked cases with known answers.
CC(=O)NC[C@H]1CN(c2ccc(N3CCOCC3)c(F)c2)C(=O)O1 [Linezolid] + COc1cc(Cc2cnc(N)nc2N)cc(OC)c1OC [Trimethoprim] ... 0.096
CC[C@H]1OC(=O)[C@H](C)[C@@H](O[C@H]2C[C@@](C)(OC)[C@@H](O)[C@H](C)O2)[C@H](C)[C@@H](O[C@@H]2O[C@H](C)C[C@H](N(C)C)[C@H]2O)[C@](C)(O)C[C@@H](C)C(=O)[C@H](C)[C@@H](O)[C@]1(C)O [Erythromycin] + C[C@@H]1O[C@@H]1P(=O)(O)O [Fosfomycin] ... -0.073
CN[C@@H]1[C@H](O[C@H]2[C@H](O[C@H]3[C@H](O)[C@@H](O)[C@H](N=C(N)N)[C@@H](O)[C@@H]3N=C(N)N)O[C@@H](C)[C@]2(O)C=O)O[C@@H](CO)[C@H](O)[C@H]1O [Streptomycin] + CC1=C\[C@@H](O)CC(=O)Cc2nc(co2)C(=O)N2CCC=C2C(=O)O[C@H](C(C)C)[C@H](C)/C=C/C(=O)NC\C=C\1 [Virginiamycin M1] ... 0.0782
CN[C@@H]1[C@H](O)[C@H](NC)[C@H]2O[C@@]3(O)C(=O)C[C@@H](C)O[C@H]3O[C@@H]2[C@H]1O [Spectinomycin] + CC1=C\[C@@H](O)CC(=O)Cc2nc(co2)C(=O)N2CCC=C2C(=O)O[C@H](C(C)C)[C@H](C)/C=C/C(=O)NC\C=C\1 [Virginiamycin M1] ... 0.0692
CN[C@H](CC(C)C)C(=O)N[C@H]1C(=O)N[C@@H](CC(N)=O)C(=O)N[C@H]2C(=O)N[C@H]3C(=O)N[C@H](C(=O)N[C@H](C(=O)O)c4cc(O)cc(O)c4-c4cc3ccc4O)[C@H](O[C@H]3C[C@](C)(N)[C@@H](O)[C@H](C)O3)c3ccc(c(Cl)c3)Oc3cc2cc(c3O[C@@H]2O[C@H](CO)[C@@H](O)[C@H](O)[C@H]2O[C@H]2C[C@](C)(NCc3ccc(-c4ccc(Cl)cc4)cc3)[C@@H](O)[C@H](C)O2)Oc2ccc(cc2Cl)[C@H]1O [Oritavancin] + CCN(CC)CCOC(=O)c1ccc(N)cc1 [Procaine] ... -0.0513

Okay, now this compound:
State measured Bliss interaction score of the compound CN[C@H](CC(C)C)C(=O)N[C@H]1C(=O)N[C@@H](CC(N)=O)C(=O)N[C@H]2C(=O)N[C@H]3C(=O)N[C@H](C(=O)N[C@H](C(=O)O)c4cc(O)cc(O)c4-c4cc3ccc4O)[C@H](O[C@H]3C[C@](C)(N)[C@@H](O)[C@H](C)O3)c3ccc(c(Cl)c3)Oc3cc2cc(c3O[C@@H]2O[C@H](CO)[C@@H](O)[C@H](O)[C@H]2O[C@H]2C[C@](C)(NCc3ccc(-c4ccc(Cl)cc4)cc3)[C@@H](O)[C@H](C)O2)Oc2ccc(cc2Cl)[C@H]1O [Oritavancin] + COc1cc(Cc2cnc(N)nc2N)cc(OC)c1OC [Trimethoprim] with S. aureus Newman. -0.111

====

Tested on: B. subtilis 168;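 further: OD595 on entry to stationary phase over no-drug wells; at most 1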
Experiment: fitness (endpoint OD595 vs no drug) (fraction); higher = more growth
Details: first compound 75 µg/mL; partner 0.5 µg/mL; main component drawn
attribute_measured: fitness
Reply: number alone, nothing else.

CC[C@H](C)[C@H](N)C1=N[C@H](C(=O)N[C@@H](CC(C)C)C(=O)N[C@H](CCC(=O)O)C(=O)N[C@H](C(=O)N[C@H]2CCCCNC(=O)[C@H](CC(N)=O)NC(=O)[C@@H](CC(=O)O)NC(=O)[C@H](Cc3cnc[nH]3)NC(=O)[C@@H](Cc3ccccc3)NC(=O)[C@H]([C@@H](C)CC)NC(=O)[C@@H](CCCN)NC2=O)[C@@H](C)CC)CS1 [Bacitracin] + CO/N=C(\C(=O)N[C@@H]1C(=O)N2C(C(=O)O)=C(COC(C)=O)CS[C@H]12)c1csc(N)n1 [Cefotaxime] ... 0.202
CC[C@H](C)[C@H](N)C1=N[C@H](C(=O)N[C@@H](CC(C)C)C(=O)N[C@H](CCC(=O)O)C(=O)N[C@H](C(=O)N[C@H]2CCCCNC(=O)[C@H](CC(N)=O)NC(=O)[C@@H](CC(=O)O)NC(=O)[C@H](Cc3cnc[nH]3)NC(=O)[C@@H](Cc3ccccc3)NC(=O)[C@H]([C@@H](C)CC)NC(=O)[C@@H](CCCN)NC2=O)[C@@H](C)CC)CS1 [Bacitracin] + N[C@@H]1CONC1=O [Cycloserine D] ... 0.858
CC[C@H](C)[C@H](N)C1=N[C@H](C(=O)N[C@@H](CC(C)C)C(=O)N[C@H](CCC(=O)O)C(=O)N[C@H](C(=O)N[C@H]2CCCCNC(=O)[C@H](CC(N)=O)NC(=O)[C@@H](CC(=O)O)NC(=O)[C@H](Cc3cnc[nH]3)NC(=O)[C@@H](Cc3ccccc3)NC(=O)[C@H]([C@@H](C)CC)NC(=O)[C@@H](CCCN)NC2=O)[C@@H](C)CC)CS1 [Bacitracin] + CC(=O)NC[C@H]1CN(c2ccc(N3CCOCC3)c(F)c2)C(=O)O1 [Linezolid] ... 0.0304

Okay, now this molecule:
Please indicate fitness recorded for CC[C@H](C)[C@H](N)C1=N[C@H](C(=O)N[C@@H](CC(C)C)C(=O)N[C@H](CCC(=O)O)C(=O)N[C@H](C(=O)N[C@H]2CCCCNC(=O)[C@H](CC(N)=O)NC(=O)[C@@H](CC(=O)O)NC(=O)[C@H](Cc3cnc[nH]3)NC(=O)[C@@H](Cc3ccccc3)NC(=O)[C@H]([C@@H](C)CC)NC(=O)[C@@H](CCCN)NC2=O)[C@@H](C)CC)CS1 [Bacitracin] + CC1=C(C(=O)O)N2C(=O)[C@@H](NC(=O)[C@H](N)c3ccccc3)[C@H]2SC1 [Cephalexin] 0.904
